Experiment: in vitro
Conditions: human
Starred links: 1 amine or outer side, 2 acyl side, 3 side chain; linkers in the order of their positions; H or OH if unused. Positions of bridges follow the written chain, without caps; N, C: chain ends. Non-standard residues stand in square brackets, D forms with d. Residues, ends and D or L forms follow the SMILES beside them. *: point of attachment. X10 = CCCCCCC[C@@H](O)CC(=O)N[C@H](CCN)C(=O)NN(CCN[*:2])C(=O)[*:1]; Decanoyl(3R-OH) = CCCCCCC[C@@H](O)CC(=O)*; dPhe(4-F) = N[C@H](Cc1ccc(F)cc1)C(=O)O; dDab = NCC[C@@H](N)C(=O)O; Dab = NCC[C@H](N)C(=O)O
Items are presented alongside their recorded CC50 at 24 h.

Here's what some known entries look like.
molecule	CC50 at 24 h
CCCCCCC[C@@H](O)CC(=O)N[C@H](CCN)C(=O)NN1CCNC(=O)[C@H](CC(C)C)NC(=O)[C@H](CCN)NC(=O)[C@H](CCN)NC(=O)[C@H](CC(C)C)NC(=O)[C@@H](Cc2ccccc2)NC(=O)[C@H](CCN)NC1=O [compound 9417] ([Dab][dF]L[Dab][Dab]L; linker N-C via X10)	> 300 µM
CCCCCCC[C@@H](O)CC(=O)N[C@H](CCN)C(=O)N[C@H]1CCNC(=O)[C@H](Cc2c[nH]c3ccccc23)NC(=O)[C@H](CCN)NC(=O)[C@H](CCN)NC(=O)[C@H](CC(C)C)NC(=O)[C@@H](Cc2ccc(F)cc2)NC(=O)[C@H](CCN)NC1=O [compound 8119] ({Decanoyl(3R-OH)}-[dDab][Dab][Dab][dPhe(4-F)]L[Dab][Dab]W; lactam 2-C)	64 µM

// moving on: another record for CC50 at 24 h
Look at this molecule and give its reported CC50 at 24 h. CCCCCCC[C@@H](O)CC(=O)N[C@H](CCN)C(=O)N[C@H]1CCNC(=O)[C@H](CC(C)C)NC(=O)[C@H](CCN)NC(=O)[C@H](CCN)NC(=O)[C@H](CC(C)C)NC(=O)[C@@H](Cc2ccc(O)cc2)NC(=O)[C@H](CCN)NC1=O [compound 5008] ({Decanoyl(3R-OH)}-[dDab][Dab][Dab][dY]L[Dab][Dab]L; lactam 2-C)
> 300 µM
